# Lookup of reported cell viability keyed by entry
# System: OCI-AML2
# protocol text: cell viability relative to vehicle control; higher = less cytotoxic;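 note: after 48 h exposure read by CellTiter-Glo luminescence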
# measurement parameters: 10 µM; SRSF2 genotype: wt/wt
Counter-ions that a name gives are not always drawn.
// return numeric value only (unit: %, not printed)

- compound: "CNCC(O)c1ccc(O)cc1 (configuration not stated) [Synephrine (Oxedrine)]"
  tested system: "OCI-AML2"
  cell viability [%]: 106
- compound: "CN1CCc2cc3c(cc2C1C1OC(=O)c2c1ccc1c2OCO1)OCO3 (single isomer, unassigned; (+)) [(+)-Bicuculline]"
  tested system: "OCI-AML2"
  cell viability [%]: 96.7
- compound: "CC[C@@]1(O)C(=O)OCc2c1cc1n(c2=O)Cc2cc3ccccc3nc2-1 [Camptothecin]"
  tested system: "OCI-AML2"
  cell viability [%]: 3.91

q: Give its cell viability value. Item: CC[C@@H]1CN2CC[C@@]3(C(=O)Nc4ccccc43)[C@@H]2C[C@@H]1/C(=C\OC)C(=O)OC [Corynoxine]
a: 79.2

q: Give its cell viability value. Item: NCC(CC(=O)O)c1ccccc1 (configuration not stated) [Phenibut]
a: 116

q: Give its cell viability value. Item: C[C@]12C=CC(=O)C=C1CC[C@@H]1[C@@H]2CC[C@@]2(C)[C@H]1CC[C@]2(C)O [Methandrostenolone]
a: 104

q: Give its cell viability value. Item: CC(=O)OC12COC1CC(O)C1(C)C(=O)C(O)C3=C(C)C(O)CC(O)(C(OC(=O)c4ccccc4)C21)C3(C)C (configuration not stated) [10-DAB (10-Deacetylbaccatin)]
a: 98.3

q: Give its cell viability value. Item: C[C@H]1CC[C@]2(NC1)O[C@H]1C[C@H]3[C@@H]4CC[C@H]5C[C@@H](O)CC[C@]5(C)[C@H]4CC[C@]3(C)[C@H]1[C@@H]2C [Tomatidine]
a: 93.5

q: Give its cell viability value. Item: Cc1cccc(C)c1NC(=O)CN1CCCC1=O [Nefiracetam (Translon)]
a: 110

q: Give its cell viability value. Item: CN1C2CC(O)CC1C1OC12 (configuration not stated) [Scopine]
a: 106

q: Give its cell viability value. Item: CCC(COC(=O)c1cc(OC)c(OC)c(OC)c1)(c1ccccc1)N(C)C (configuration not stated) [Trimebutine maleate]
a: 97.4

---

# Test system: MARIMO
# protocol text: cell viability relative to vehicle control; higher = less cytotoxic
# measurement parameters: 10 µM; SRSF2 genotype: SRSF2 P95H/wt
Counter-ions that a name gives are not always drawn.
measured metric: cell viability (%)
// return numeric value only (unit: %, not printed)

- molecule: "O=c1[nH]c2ccc(Cl)cc2c(N[C@@H]2CN3CCC2CC3)c1-c1nc2ccccc2[nH]1"
  reported: 0.55
- molecule: "NCC(O)c1ccc(O)cc1 (racemic) [(+,-)-Octopamine HCl]"
  reported: 96.5

Attention now shifts to the item below.
q: Entry C[C@@]12N[C@@H](Cc3ccccc31)c1ccccc12 [(-)-MK 801 maleate] , system MARIMO: what cell viability was measured?
a: 101

---

# Tested on: MOLM14
# protocol text: cell viability relative to vehicle control; higher = less cytotoxic
# measurement parameters: 10 µM; SRSF2 genotype: SRSF2 wt/wt
Structures can show the parent of a compound that is named as a salt.
# Lookup of reported cell viability keyed by entry
// return numeric value only (unit: %, not printed)

Example results:
- compound: "CC(=O)OC12COC1CC(O)C1(C)C(=O)C(O)C3=C(C)C(O)CC(O)(C(OC(=O)c4ccccc4)C21)C3(C)C (configuration not stated) [10-DAB (10-Deacetylbaccatin)]"
  cell viability (%): 105
- compound: "CC1=C(O)C(=O)C=C2C1=CC=C1[C@@]2(C)CC[C@@]2(C)[C@@H]3C[C@](C)(C(=O)O)CC[C@]3(C)CC[C@]12C [Celastrol]"
  cell viability (%): 0.51

q: Give its cell viability value. Item: CC[C@@]1(O)C(=O)OCc2c1cc1n(c2=O)Cc2cc3ccccc3nc2-1 [Camptothecin]
a: 1.35

q: Give its cell viability value. Item: CC(C)=CCC[C@](C)(O)[C@H]1CC[C@]2(C)[C@@H]1[C@H](O)C[C@@H]1[C@@]3(C)CC[C@H](O[C@@H]4O[C@H](CO)[C@@H](O)[C@H](O)[C@H]4O)C(C)(C)[C@@H]3CC[C@]12C [20S-Ginsenoside Rh2]
a: 106

q: Give its cell viability value. Item: `CN1CCC(c2c[nH]c3ccc(O)cc23)CC1`
a: 102

q: Give its cell viability value. Item: CNC(C)Cc1ccccc1OC (configuration not stated) [Methoxyphenamine Hydrochloride]
a: 102

q: Give its cell viability value. Item: C=C1CC[C@H]2[C@@H](C=C(C)C(=O)[C@@]3(O)C[C@H](C)[C@H](O)[C@@H]3[C@H]1O)C2(C)C [Lathyrol]
a: 96.8

---

# Test system: MOLM14
# protocol text: cell viability relative to vehicle control; higher = less cytotoxic
# measurement parameters: 10 µM; SRSF2 genotype: SRSF2 P95H/wt
Where a name gives a salt, the structure may show the parent alone.
# Lookup of reported cell viability keyed by entry
// return numeric value only (unit: %, not printed)

Example results:
- molecule: "CN(C)C(=O)Oc1ccc[n+](C)c1 [Pyridostigmine Bromide (Mestinon)]"
  tested system: "MOLM14"
  reported: 96.6
- molecule: "CC(C)=CCCC(C)(O)C1CCC2(C)C1C(O)CC1C3(C)CCC(OC4OC(CO)C(O)C(O)C4O)C(C)(C)C3CCC12C [(20R)Ginsenoside Rh2]"
  tested system: "MOLM14"
  reported: 102
- molecule: "CC[C@]12C=CCN3CC[C@]4(C(=C(C(=O)OC)C1)Nc1ccccc14)[C@@H]32"
  tested system: "MOLM14"
  reported: 11.3
- molecule: "Cc1c(N)nc(C(CC(N)=O)NCC(N)C(N)=O)nc1C(=O)NC(C(=O)NC(C)C(O)C(C)C(=O)NC(C(=O)NCCc1nc(-c2nc(C(=O)NCCC[S+](C)C)cs2)cs1)C(C)O)C(O[C@@H]1O[C@@H](CO)[C@@H](O)[C@H](O)[C@@H]1O[C@H]1O[C@H](CO)[C@@H](O)[C@H](OC(N)=O)[C@@H]1O)c1cnc[nH]1 (stereo partly specified) [Bleomycin sulfate]"
  tested system: "MOLM14"
  reported: 53.4
- molecule: "Cc1sc2c(c1C)C(c1ccc(Cl)cc1)=N[C@@H](CC(=O)OC(C)(C)C)c1nnc(C)n1-2"
  tested system: "MOLM14"
  reported: 15.9

Attention now shifts to the item below.
q: Give its cell viability value. Item: CC1C(=O)OC2C(O)C34C5OC(=O)C3(OC3OC(=O)C(O)C34C(C(C)(C)C)C5O)C12O (stereo unspecified) [Ginkgolide C]
a: 103

---

# System: OCI-AML2
# protocol text: cell viability relative to vehicle control; higher = less cytotoxic
# measurement parameters: 10 µM; SRSF2 genotype: P95H/wt
measured metric: cell viability (%)
// return numeric value only (unit: %, not printed)

Example results:
- compound: "COc1ccc(C=O)cc1"
  cell viability, %: 97.2
- compound: "CC(C)=CCC[C@]1(C)C=Cc2c(O)c3c(c(CC=C(C)C)c2O1)O[C@]12C(=C[C@@H]4C[C@H]1C(C)(C)O[C@@]2(C/C=C(/C)C(=O)O)C4=O)C3=O"
  cell viability, %: 0.38

q: Give its cell viability value. Item: `C[C@@H]1CC[C@H]2[C@@H](C)C(=O)O[C@@H]3O[C@@]4(C)CC[C@@H]1[C@]32OO4`
a: 84.6

q: Give its cell viability value. Item: `CN1CCC(c2c[nH]c3ccc(O)cc23)CC1`
a: 91.8

q: Give its cell viability value. Item: Fc1cc(F)c2c(c1)[C@H]1C=CC[C@H]1C(c1cccnc1)N2 (stereo partly drawn) [Golgicide A]
a: 12.2

q: Give its cell viability value. Item: `O=c1[nH]c2ccc(Cl)cc2c(N[C@@H]2CN3CCC2CC3)c1-c1nc2ccccc2[nH]1`
a: 0.04

q: Give its cell viability value. Item: `C[C@]12CCC(=O)C(O)=C1CC[C@@H]1[C@@H]2CC[C@]2(C)C(=O)CC[C@@H]12`
a: 104

q: Give its cell viability value. Item: `C/C=C\c1cc(OC)c(OC)cc1OC`
a: 104

q: Give its cell viability value. Item: C[C@@H]1CC[C@@]2(OC1)O[C@H]1C[C@H]3[C@@H]4CC=C5C[C@@H](O[C@@H]6O[C@H](CO)[C@@H](O[C@@H]7O[C@@H](C)[C@H](O)[C@@H](O)[C@H]7O)[C@H](O)[C@H]6O[C@@H]6O[C@@H](C)[C@H](O)[C@@H](O)[C@H]6O)CC[C@]5(C)[C@H]4CC[C@]3(C)[C@H]1[C@@H]2C [Dioscin (Collettiside III)]
a: 0.51

q: Give its cell viability value. Item: `C=C[C@H]1CN2CC[C@@]3(C(=O)Nc4ccccc43)[C@@H]2C[C@@H]1/C(=C\OC)C(=O)OC`
a: 88.2

q: Give its cell viability value. Item: `C[C@]12CC[C@H]3[C@@H](CC[C@@]45O[C@@H]4C(O)=C(C#N)C[C@]35C)[C@@H]1CC[C@@H]2O`
a: 123
